The reported numbers originate from ChEMBL document CHEMBL4665801.

measured.on: L-lactate dehydrogenase A chain (Homo sapiens)
measurement.protocol: Inhibition of LDHA in human MIA PaCa-2 cells assessed as decrease in lactate production incubated for 2 hrs by lactate oxidase-coupled fluorescence based assay
Type: cell-based
pIC50: −log10 of the molar value.
readout.name: pIC50

Solved entries:
[
  {
    "compound": "CCC#Cc1cc(-c2nn(-c3nc(C(=O)O)cs3)c(CC3CC3)c2Cc2ccc(S(N)(=O)=O)c(F)c2)ccc1F",
    "pIC50": 6.33
  },
  {
    "compound": "CC(F)C#Cc1cc(-c2nn(-c3nc(C(=O)O)cs3)c(CC3CC3)c2Cc2ccc(S(N)(=O)=O)c(F)c2)ccc1F (configuration not stated)",
    "pIC50": 6.09
  }
]

[A] Cc1nc(C#Cc2cccc(-c3nn(-c4nc(C(=O)O)cs4)c(CCC4CC4)c3Cc3ccc(S(N)(=O)=O)c(F)c3)c2)cs1
[B] Cc1ncc(C#Cc2cccc(-c3nn(-c4nc(C(=O)O)cs4)c(CC4CC4)c3Cc3ccc(S(N)(=O)=O)c(F)c3)c2)s1
(Q) Which value of pIC50 is greater, the one for A or the one for B ? Answer format: the label of the selected item.
(A) A
(A: 6.60, B: 6.14)

###

measured.on: CYP2C8 (Homo sapiens)
Sequence (P10632 whole entry): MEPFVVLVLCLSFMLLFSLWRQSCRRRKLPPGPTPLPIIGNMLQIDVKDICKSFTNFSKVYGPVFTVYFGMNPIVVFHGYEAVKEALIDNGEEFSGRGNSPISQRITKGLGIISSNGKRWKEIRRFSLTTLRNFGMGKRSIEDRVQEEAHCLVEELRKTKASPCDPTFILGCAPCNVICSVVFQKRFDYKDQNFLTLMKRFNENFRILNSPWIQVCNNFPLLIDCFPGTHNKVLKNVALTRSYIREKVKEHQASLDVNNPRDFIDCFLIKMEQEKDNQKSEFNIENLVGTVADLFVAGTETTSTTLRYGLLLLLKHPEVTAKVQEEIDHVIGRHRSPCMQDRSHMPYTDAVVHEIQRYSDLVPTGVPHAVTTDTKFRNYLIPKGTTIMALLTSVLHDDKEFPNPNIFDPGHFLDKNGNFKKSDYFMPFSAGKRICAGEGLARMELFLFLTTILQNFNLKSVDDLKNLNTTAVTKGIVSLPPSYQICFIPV
measurement.protocol: Inhibition of CYP2C8 (unknown origin) at 10 uM relative to control
Format: ADME
readout.name: inhibition at 10 µM (%)
State the answer as a number, implicitly in %.

(Q) Requested read-out: inhibition at 10 µM. Entry: Cc1ccc(C#Cc2cc(-c3nn(-c4nc(C(=O)O)cs4)c(CC4CC4)c3Cc3ccc(S(N)(=O)=O)c(F)c3)ccc2F)s1
(A) 80

###

measured.on: L-lactate dehydrogenase A chain (Homo sapiens, UniProt P00338)
measurement.protocol: Inhibition of LDHA in human MIA PaCa-2 cells assessed as decrease in lactate production incubated for 2 hrs by lactate oxidase-coupled fluorescence based assay
Assay type: cell-based
pIC50: −log10 of the molar value.
readout.name: pIC50

[
  {
    "compound.structure.string": "NS(=O)(=O)c1ccc(Cc2c(-c3ccc(F)c(C#Cc4cccs4)c3)nn(-c3nc(C(=O)O)cs3)c2CC2CC2)cc1F",
    "pIC50": 6.51
  },
  {
    "compound.structure.string": "NS(=O)(=O)c1ccc(Cc2c(-c3cccc(C#Cc4ccc(C5CC5)s4)c3)nn(-c3nc(C(=O)O)cs3)c2CC2CC2)cc1F",
    "pIC50": 6.36
  },
  {
    "compound.structure.string": "NS(=O)(=O)c1ccc(Cc2c(-c3cccc(C#Cc4ccc(C5CCC5)s4)c3)nn(-c3nc(C(=O)O)cs3)c2CCC2CC2)cc1F",
    "pIC50": 6.42
  },
  {
    "compound.structure.string": "CC#Cc1cc(-c2nn(-c3nc(C(=O)O)cs3)c(CC3CC3)c2Cc2ccc(S(N)(=O)=O)c(F)c2)ccc1F",
    "pIC50": 6.35
  },
  {
    "compound.structure.string": "NS(=O)(=O)c1ccc(Cc2c(-c3cccc(-c4ccccc4)c3)nn(-c3nc(C(=O)O)cs3)c2CC2CC2)cc1F",
    "pIC50": 6.06
  },
  {
    "compound.structure.string": "NS(=O)(=O)c1ccc(Cc2c(-c3cccc(C#Cc4ccc(C5CCC5)s4)c3)nn(-c3nc(C(=O)O)cs3)c2CC2CC2)cc1F",
    "pIC50": 6.31
  },
  {
    "compound.structure.string": "NS(=O)(=O)c1ccc(Cc2c(-c3cccc(C#Cc4ccc(Cl)s4)c3)nn(-c3nc(C(=O)O)cs3)c2CC2CC2)cc1F",
    "pIC50": 6.39
  }
]
